// scaled log2 fold change lookup, one value per entry
B1: library; numbered along this chain (parent)
chain: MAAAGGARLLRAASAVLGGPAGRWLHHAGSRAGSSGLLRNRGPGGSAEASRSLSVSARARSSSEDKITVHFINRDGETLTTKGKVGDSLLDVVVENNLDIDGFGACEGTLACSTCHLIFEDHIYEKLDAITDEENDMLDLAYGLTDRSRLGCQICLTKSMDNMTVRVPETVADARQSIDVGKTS

# Variants of: B1
# method-description: scaled log2 fold change in cell abundance, elesclomol vs control (0 = silent mean, 1 = nonsense mean) (scaled log2 ratio); higher = higher viability under elesclomol (loss of FDX1 cuproptosis function);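 further: variant abundance is its share of total variant reads in each endpoint sample, from next-generation sequencing of the integrated ORF PCR-amplified out of genomic DNA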
# experimental-setup: with HEK293T FDX1 KO; elesclomol 40 nM; glucose 10 mM; 11 days

alteration | scaled log2 fold change
R175H | -0.908
G181P | -0.548
V94N | -1.27
T114L | 0.0445
I178K | 1.24
V171T | -0.343
H27A | 0.337
A21Q | 0.318
C112W | 0.573
G6F | -0.294
R60S | 0.216
I72M | 0.0709
G22D | 0.368
F119V | 1.48
